Values were extracted from PubChem BioAssay AID1567.

# assay-system: Thyroid hormone receptor beta (Homo sapiens) (UniProt P10828)
# Sequence (P10828 whole entry, looked up): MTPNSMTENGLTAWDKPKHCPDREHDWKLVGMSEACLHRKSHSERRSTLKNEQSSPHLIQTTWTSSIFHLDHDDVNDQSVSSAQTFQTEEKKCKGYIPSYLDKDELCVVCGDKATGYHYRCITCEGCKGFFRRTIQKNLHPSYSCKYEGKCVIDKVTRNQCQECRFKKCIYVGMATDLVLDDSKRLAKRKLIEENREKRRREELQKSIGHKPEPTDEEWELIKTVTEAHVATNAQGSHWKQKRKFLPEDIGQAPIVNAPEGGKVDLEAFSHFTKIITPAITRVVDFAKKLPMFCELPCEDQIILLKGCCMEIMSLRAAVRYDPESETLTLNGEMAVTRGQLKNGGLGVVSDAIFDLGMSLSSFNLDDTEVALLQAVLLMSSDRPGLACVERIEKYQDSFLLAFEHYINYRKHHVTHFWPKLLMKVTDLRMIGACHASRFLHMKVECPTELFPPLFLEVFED
# run-description: Cell-based Gene Reporter Secondary Assay to Characterize qHTS Inhibitors of the Interaction of Thyroid Hormone Receptor and Steroid Receptor Coregulator 2
# experimental-conditions: WRO cells TRbeta TRE-luciferase, T3-stimulated, 16 h; series mostly up to 29.9 µM
Results filed as inconclusive are left out. The source made the active and inactive calls. The call rests on the fitted dose curve; in most records, active means well fitted inhibition curve with a large enough effect; inconclusive means small, poorly fitted or top-dose-only effect, or effect the other way; inactive means no such curve, though single readings can be large or run the other way.
Labels: active, inactive

compound="CCOc1ccc(NC(=O)C(c2ccccn2)N(C(=O)CCl)c2ccc(F)cc2)cc1 (stereo not given)" assay_system="Thyroid hormone receptor beta (Homo sapiens) (UniProt P10828)" assigned_class=inactive
compound="CC1=NN(c2ccc(F)cc2)C(=O)C1C(c1cccc(O)c1)c1c(C)[nH]n(-c2ccc(F)cc2)c1=O (stereo not given)" assay_system="Thyroid hormone receptor beta (Homo sapiens) (UniProt P10828)" assigned_class=inactive
compound=O=C(O)[C@H]1CN(CCCP(=O)(O)O)CCN1 assay_system="Thyroid hormone receptor beta (Homo sapiens) (UniProt P10828)" assigned_class=inactive
compound=CCc1ccc2c(c1)c1nc(C)sc1n2CC assay_system="Thyroid hormone receptor beta (Homo sapiens) (UniProt P10828)" assigned_class=inactive
compound=Cc1ccc(OC(=S)Nc2ccc(O)cc2)cc1 assay_system="Thyroid hormone receptor beta (Homo sapiens) (UniProt P10828)" assigned_class=inactive
compound=CN1CCc2ccc3c4c2[C@]1(C)Cc1cccc(c1-4)OCO3 assay_system="Thyroid hormone receptor beta (Homo sapiens) (UniProt P10828)" assigned_class=active
compound=CCCc1nc2c(=O)n(C)c(=O)nc-2n(C)n1 assay_system="Thyroid hormone receptor beta (Homo sapiens) (UniProt P10828)" assigned_class=active
compound=Cc1nc2ccccc2n2c(O)c(CC(=O)O)cc12 assay_system="Thyroid hormone receptor beta (Homo sapiens) (UniProt P10828)" assigned_class=inactive
compound=Cc1cc(C)cc(OCC(=O)NCCc2nc3ccccc3[nH]2)c1 assay_system="Thyroid hormone receptor beta (Homo sapiens) (UniProt P10828)" assigned_class=inactive
compound=CCSc1ncc(Cl)c(C(=O)Nc2nc3ccc(OC)cc3s2)n1 assay_system="Thyroid hormone receptor beta (Homo sapiens) (UniProt P10828)" assigned_class=inactive

----------
# assay-system: Thyroid hormone receptor beta (Homo sapiens)
# run-description: Cell-based Gene Reporter Secondary Assay to Characterize qHTS Inhibitors of the Interaction of Thyroid Hormone Receptor and Steroid Receptor Coregulator 2
# experimental-conditions: WRO cells TRbeta TRE-luciferase, T3-stimulated, 16 h; series mostly up to 29.9 µM
Results filed as inconclusive are left out. Activity calls are given as the source filed them. Calls follow the shape of the dose curve; as a rule, active = well fitted inhibition curve with a large enough effect; inconclusive = small, poorly fitted or top-dose-only effect, or effect the other way; inactive = no such curve, though single readings can be large or run the other way.
metric: Potency

compound="CCC(CNc1cc(OC)cc2cccnc12)NC1CCCCC1 (configuration not stated)" assay_system="Thyroid hormone receptor beta (Homo sapiens)" observed_value="6.31 µM (active)"
compound=Cn1cc(/C=C2\SC(=S)N(NC(=O)c3ccccc3)C2=O)c2ccccc21 assay_system="Thyroid hormone receptor beta (Homo sapiens)" observed_value=inactive
compound="COc1cc(NC(C)CCCN)c2ncccc2c1 (configuration not stated)" assay_system="Thyroid hormone receptor beta (Homo sapiens)" observed_value="22.4 µM (active)"
compound="CN1c2ccccc2C(C)(C)C12C=Nc1c(ccc3ccccc13)O2 (configuration not stated)" assay_system="Thyroid hormone receptor beta (Homo sapiens)" observed_value="4.47 µM (active)"
compound="CN1c2ccccc2C(C)(C)C12C=Nc1c(cc(N3CCOCC3)c3ccccc13)O2 (configuration not stated)" assay_system="Thyroid hormone receptor beta (Homo sapiens)" observed_value=inactive
compound=CN1N=C(C(C)(C)C)CC1=O assay_system="Thyroid hormone receptor beta (Homo sapiens)" observed_value=inactive
compound=Cn1c(NNC(=O)c2c(F)cccc2F)cc(=O)n(C)c1=O assay_system="Thyroid hormone receptor beta (Homo sapiens)" observed_value=inactive
compound=O=c1cc(C23CC4CC(CC(C4)C2)C3)[nH][nH]1 assay_system="Thyroid hormone receptor beta (Homo sapiens)" observed_value=inactive
compound=CCC(NC(=O)Nc1ccc(O)cc1)(C(F)(F)F)C(F)(F)F assay_system="Thyroid hormone receptor beta (Homo sapiens)" observed_value=inactive
compound="COc1ccc2ccc3c(c2c1)N=CC1(O3)N(C)c2ccccc2C1(C)C (configuration not stated)" assay_system="Thyroid hormone receptor beta (Homo sapiens)" observed_value=inactive
compound="COc1cc(NCCCC(C)N)c2ncccc2c1 (configuration not stated)" assay_system="Thyroid hormone receptor beta (Homo sapiens)" observed_value="3.16 µM (active)"
compound=CN(C)c1cc(Cl)c2nonc2c1N assay_system="Thyroid hormone receptor beta (Homo sapiens)" observed_value=inactive
